# System: rice
# experiment.summary: Low temperature assay on rice seedlings
# Type: in vivo
# cond: 0.001 mg/l, 5 °C, 12 days
Assign Number of leaf to each entry below.
Give bare numbers.

[
  {
    "compound": "CC(C)[C@H](C)[C@@H](O)[C@H](O)[C@@H](C)[C@H]1CCC2C3CC(=O)C4C[C@H](O)CC[C@]4(C)C3CC[C@@]21C (stereo partly drawn)",
    "study.target": "rice",
    "experimental.readout": "Number of leaf",
    "measured.value": 3
  },
  {
    "compound": "CC(C)C[C@@H](O)[C@H](O)[C@@H](C)[C@H]1CCC2C3CC(=O)C4C[C@H](O)[C@H](O)C[C@]4(C)C3CC[C@@]21C (stereo partly drawn)",
    "study.target": "rice",
    "experimental.readout": "Number of leaf",
    "measured.value": 3
  }
]

Lab note: next compound to report on.
Note to self: Number of leaf of `CC(C)(O)CC[C@@H](O)[C@](C)(O)[C@H]1CC[C@@]2(O)[C@@H]3CC(=O)[C@@H]4C[C@@H](O)[C@@H](O)C[C@]4(C)[C@H]3CC[C@]12C` with rice was 3

###

Please respond with reported Total angle for every item in the list.
# Test system: rice
# experiment.summary: Rice leaf bending assay (leaf inclination angle)
# Type: in vivo
# cond: 1 mg/l, 48 hr, sum of 20 rice
Numbers only, in degree.

These recorded examples may help you get a feel for the data.
[
  {
    "compound": "CC[C@@H](C(C)C)[C@@H](O)[C@H](O)[C@@H](C)[C@H]1CCC2C3COC(=O)C4C[C@H](O)[C@H](O)C[C@]4(C)C3CC[C@@]21C (stereo partly drawn) [BR2]",
    "experimental.readout": "Total angle",
    "measured.value": 1425
  },
  {
    "compound": "CC(C)[C@H](C)[C@@H](O)[C@H](O)[C@@H](C)[C@H]1CCC2C3CC(=O)C4C[C@H](O)CC[C@]4(C)C3CC[C@@]21C (stereo partly drawn) [BR4]",
    "experimental.readout": "Total angle",
    "measured.value": 1280
  },
  {
    "compound": "C=C(C(C)C)[C@@H](O)[C@H](O)[C@@H](C)[C@H]1CCC2C3COC(=O)C4C[C@H](O)[C@H](O)C[C@]4(C)C3CC[C@@]21C (stereo partly drawn) [BR3]",
    "experimental.readout": "Total angle",
    "measured.value": 1306
  }
]

For each of the compounds below, state Total angle.
1. CC(C)C[C@@H](O)[C@H](O)[C@@H](C)[C@H]1CCC2C3CC(=O)C4C[C@H](O)[C@H](O)C[C@]4(C)C3CC[C@@]21C (stereo partly drawn) [BR5]
2. CC(C)[C@H](C)[C@@H](O)[C@H](O)[C@@H](C)[C@H]1CCC2C3COC(=O)C4C[C@H](O)[C@H](O)C[C@]4(C)C3CC[C@@]21C (stereo partly drawn) [BR1]
3. CC(C)(O)CC[C@@H](O)[C@](C)(O)[C@H]1CC[C@@]2(O)[C@@H]3CC(=O)[C@@H]4C[C@@H](O)[C@@H](O)C[C@]4(C)[C@H]3CC[C@]12C [BR6]

1. 2200
2. 2215
3. 2180
